I'd appreciate it if you could supply log10 IC50 values for the items below.
Test system: photosynthetic electron transport (PET) in spinach chloroplasts
assay-name: Inhibition of photosynthetic electron transport (PET) in spinach chloroplasts, DCPIP photoreduction
Assay type: biochemical, Spinacia oleracea L.
test-settings: chlorophyll 30 mg/L, phosphate buffer pH 7.2
Please interpret these as log10 of IC50 where IC50 is in µM.

In: So what does the record say about log10 IC50 for Cc1ccc(CNc2nc(C#N)c(C#N)nc2C)cc1 ?
Out: 2.02

In: Data request, read-out log10 IC50, for Cc1nc(C#N)c(C#N)nc1NCc1ccccc1Cl
Out: 1.90

In: Need log10 IC50, item Cc1nc(C#N)c(C#N)nc1NCc1ccc(Cl)cc1
Out: 1.94

In: Recorded log10 IC50 for Cc1ccccc1CNc1nc(C#N)c(C#N)nc1C , please?
Out: 2.06

In: Look at this molecule and give its reported log10 IC50. Cc1nc(C#N)c(C#N)nc1NCc1ccc(C(F)(F)F)cc1
Out: 1.60

In: Item Cc1nc(C#N)c(C#N)nc1NCc1ccccc1F has what recorded log10 IC50?
Out: 2.29

In: Report log10 IC50 for Cc1nc(C#N)c(C#N)nc1NCc1ccc(Cl)c(Cl)c1 please.
Out: 1.21

In: Please give the measured log10 IC50 for this molecule: Cc1nc(C#N)c(C#N)nc1NCc1cccc([N+](=O)[O-])c1
Out: 2.69

In: Suppose we examine the molecule Cc1nc(C#N)c(C#N)nc1NCc1cccc(Cl)c1 ; what log10 IC50 value has been reported?
Out: 1.76

In: Given the molecule Cc1nc(C#N)c(C#N)nc1NCc1cccc(C(F)(F)F)c1 , what is its reported log10 IC50?
Out: 1.58

In: Form field: reported log10 IC50 of COc1ccc(CNc2nc(C#N)c(C#N)nc2C)cc1
Out: 2.67

In: I'd like to know its log10 IC50. The molecule in question is Cc1nc(C#N)c(C#N)nc1NCc1ccccc1C(F)(F)F
Out: 1.85
